Molecular target: Human autotaxin enzyme (Homo sapiens)
Construct: purchased R&D System
Assay: Evaluation of autotaxin inhibitor, Method C (Test Example 3): 18:0 Lyso PC, choline assay, Resorufin fluorescence
Format: biochemical
Settings: Assay Method C (Test Example 3), human autotaxin, 18:0 Lyso PC substrate; read-out: Inhibitory Activity (autotaxin enzyme inhibitory activity, IC50 class)
result_type: IC50

# smiles_repr, IC50
records = [
    ("CCCCCn1c(N2CCC[C@H]2C(=O)NCCCN(C)C)cc(=O)n2cc(-c3ccc(Cl)cc3)nc12", "> 1000 nM"),
    ("CCCCCn1c(NC2(C(=O)O)CC2)cc(=O)n2cc(-c3ccc(Cl)cc3)nc12", "> 1000 nM"),
    ("CCCCCn1c(-c2ccccc2NS(C)(=O)=O)cc(=O)n2cc(-c3ccc(Cl)cc3)nc12", "100 to 1000 nM"),
]

Next item in the queue.
Please list IC50 recorded for the compound CCCCCn1c(N2C[C@@H](O)C[C@H]2C(=O)NCCC(=O)OCC)cc(=O)n2cc(-c3ccc(Cl)cc3)nc12
10 to 100 nM

====

IC50 overview
Target: Human autotaxin enzyme (Homo sapiens, UniProt Q13822)
Construct: purchased R&D System
Test: Evaluation of autotaxin inhibitor, Method B (Test Example 2): TG-mTMP fluorescence
Format: biochemical
Conditions: Assay Method B (Test Example 2), human autotaxin; read-out: Inhibitory Activity (autotaxin enzyme inhibitory activity, IC50 class)

Solved entries:
# compound, IC50
measured = [
    ("CCCCCn1c(CCC)cc(=O)n2cc(-c3ccc(Cl)cc3)nc12 [Compound 369]", "< 10 nM"),
    ("CCCCCn1c(NCc2ccc(N(C)C)cc2)cc(=O)n2cc(-c3ccc(Cl)cc3)nc12 [Compound 237]", "10 to 100 nM"),
    ("CCCCCn1c(N2CCC[C@H]2C)cc(=O)n2cc(-c3ccc(Cl)cc3)nc12 [Compound 256]", "< 10 nM"),
]

Next item in the queue.
Please list IC50 recorded for the compound N#Cc1ccc(-c2cn3c(=O)cc(NCc4ccc(C(=O)O)cc4)n(CCCC(F)(F)F)c3n2)cc1 [Compound 289]
< 10 nM

====

pIC50 overview
Target: Human autotaxin enzyme (Homo sapiens)
Construct: purchased R&D System
Test: Evaluation of autotaxin inhibitor, Method B (Test Example 2): TG-mTMP fluorescence
Format: biochemical
Conditions: Assay Method: Method B (Test Example 2); read-out: Inhibitory Activity (Enzyme Inhibitory Activity, IC50)
pIC50: −log10 of the molar value.

Solved entries:
# molecule, pIC50
records = [
    ("CCCC(Cn1c(C)cc(=O)n2cc(-c3ccc(Cl)cc3)nc12)OS(C)(=O)=O (stereo not drawn)", "> 8.00"),
    ("CCCC(C)n1c(C)cc(=O)n2cc(-c3ccc(Cl)cc3)nc12 (stereo not drawn)", "7.00 to 8.00"),
    ("Cc1cc(=O)n2cc(-c3ccc(Cl)cc3)nc2n1Cc1ccccc1F", "7.00 to 8.00"),
    ("Cc1cc(=O)n2cc(-c3ccc(Cl)cc3)nc2n1CC(=O)C1CC1", "6.00 to 7.00"),
    ("CCC/C=C/n1c(C)cc(=O)n2cc(-c3ccc(Cl)cc3)nc12", "7.00 to 8.00"),
    ("Cc1cc(=O)n2cc(-c3ccc(Cl)cc3)nc2n1C(C)c1ccccc1 (stereo not drawn)", "7.00 to 8.00"),
]

Find pIC50 for CC(=O)OCCn1c(C)cc(=O)n2cc(-c3ccc(Cl)cc3)nc12 on Human autotaxin enzyme (Homo sapiens) and write it down.
7.00 to 8.00

Find pIC50 for Cc1cc(=O)n2cc(-c3ccc(Cl)cc3)nc2n1CC(=O)C1CCCCC1 on Human autotaxin enzyme (Homo sapiens) and write it down.
< 6.00

Find pIC50 for CCOC(=O)C(C)n1c(C)cc(=O)n2cc(-c3ccc(Cl)cc3)nc12 (stereo not drawn) on Human autotaxin enzyme (Homo sapiens) and write it down.
7.00 to 8.00
